biological target: GDP-bound KRAS wild-type protein (Homo sapiens, UniProt P01116); test: Binding to KRAS by surface plasmon resonance (SPR), Single Cycle Kinetics; settings: SPR, Single Cycle Kinetics, GDP-bound KRAS wild-type protein; read-out: KRAS KD
Sequence (P01116 whole entry): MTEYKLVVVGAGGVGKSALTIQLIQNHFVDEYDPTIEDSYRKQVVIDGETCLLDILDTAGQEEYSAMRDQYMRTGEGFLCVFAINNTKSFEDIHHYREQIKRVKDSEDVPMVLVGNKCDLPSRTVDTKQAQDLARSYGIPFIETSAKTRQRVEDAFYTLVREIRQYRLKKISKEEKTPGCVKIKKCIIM
The following ranges of Kd define the classes used here: lower segment (below 0.1 nM), middle segment (0.1 nM to below 1 nM), upper segment (1 nM or more)

COMPOUND: CCC(CC)[C@H]1C(=O)N(C)[C@H](C(=O)N(C)C)CC(=O)N(C)[C@@H](C(C)C)C(=O)N[C@@H]([C@@H](C)CC)C(=O)N(C)CC(=O)N(C)[C@H]2C/C=C\CCN(C2=O)[C@@H](CC2CCC(F)(F)CC2)C(=O)N(C)CC(=O)N[C@@H](CCc2cc(F)c(C(F)(F)F)c(F)c2)C(=O)N2C[C@@H](C)C[C@H]2C(=O)NC2(CC(C)(C)C2)C(=O)N1C [PP2496]
CLASS_LABEL: upper segment
--
COMPOUND: CCCN(C)C(=O)[C@@H]1CC(=O)N(C)[C@@H](CC2CC2)C(=O)N[C@@H]([C@@H](C)CC)C(=O)N(C)CC(=O)N(C)[C@H]2C/C=C\CCN(C2=O)[C@@H](Cc2ccc(C(F)(F)F)cc2)C(=O)N(C)CC(=O)N[C@@H](CCc2cc(F)c(C(F)(F)F)c(F)c2)C(=O)N2C[C@H](OCC)C[C@H]2C(=O)NC2(CC(F)(F)C2)C(=O)N(C)[C@@H](C2CCCC2)C(=O)N1C [PP1739]
CLASS_LABEL: lower segment

Problem: Lab note: sort CCCN(C)C(=O)[C@@H]1CC(=O)N(C)[C@@H](C2CCC2)C(=O)N[C@@H]([C@@H](C)CC)C(=O)N(C)CC(=O)N(C)[C@H]2C/C=C\CCN(C2=O)[C@@H](Cc2ccc(C(F)(F)F)cc2)C(=O)N(C)CC(=O)N[C@@H](CCc2cc(F)c(C(F)(F)F)c(F)c2)C(=O)N2C[C@@H](C)C[C@H]2C(=O)NC2(CCC2)C(=O)N(C)[C@@H](C2CCCC2)C(=O)N1C [PP2083] into the matching Kd band.
Solution: middle segment

Problem: Lab note: sort CCO[C@@H]1C[C@H]2C(=O)NC3(CCC3)C(=O)N(C)[C@@H](C3CCCC3)C(=O)N(C)[C@H](C(=O)N(C)C)CC(=O)N(C)[C@@H](Cc3ccc(C#N)cc3)C(=O)N[C@@H]([C@@H](C)CC)C(=O)N(C)CC(=O)N(C)[C@H]3CCCCCN(C3=O)[C@@H](Cc3ccc(F)cc3)C(=O)N(C)CC(=O)N[C@@H](CCc3cc(F)c(C(F)(F)F)c(F)c3)C(=O)N2C1 [PP1157] into the matching Kd band.
Solution: lower segment

Problem: Lab note: sort CCO[C@@H]1C[C@H]2C(=O)NC3(CCC3)C(=O)N(C)[C@@H](C3CCCC3)C(=O)N(C)[C@H](C(=O)N(C)CC)CC(=O)N(C)[C@@H](C3CC3)C(=O)N[C@@H]([C@@H](C)CC)C(=O)N(C)CC(=O)N(C)[C@H]3C/C=C\CCN(C3=O)[C@@H](Cc3ccc(C(F)(F)F)cc3)C(=O)N(C)CC(=O)N[C@@H](CCc3ccc(C(F)(F)F)c(OC)c3)C(=O)N2C1 [PP2021] into the matching Kd band.
Solution: middle segment

Problem: Lab note: sort CCC[C@H]1C(=O)N[C@@H]([C@@H](C)CC)C(=O)N2CCC[C@H]2C(=O)N(C)[C@H]2C/C=C\CCN(C2=O)[C@@H](Cc2ccc(C)cc2)C(=O)N(C)CC(=O)N[C@@H](CCc2ccc(C(F)(F)F)c(OC)c2)C(=O)N2C[C@H](OCC)C[C@H]2C(=O)N(C)C2(CCC2)C(=O)N(C)[C@@H](C(CC)CC)C(=O)N(C)[C@H](C(=O)N(C)C)CC(=O)N1C [PP2329] into the matching Kd band.
Solution: middle segment

Problem: Lab note: sort CCO[C@@H]1C[C@H]2C(=O)NC3(CCC3)C(=O)N(C)[C@@H](C3CCCC3)C(=O)N(CC)[C@H](C(=O)N3CCOCC3)CC(=O)N(C)[C@@H](CC)C(=O)N[C@@H]([C@@H](C)CC)C(=O)N(C)CC(=O)N(C)[C@H]3CCCCCN(C3=O)[C@@H](Cc3ccc(C(F)(F)F)cc3)C(=O)N(C)CC(=O)N[C@@H](CCc3cc(F)c(C(F)(F)F)c(F)c3)C(=O)N2C1 [PP0944] into the matching Kd band.
Solution: upper segment

Problem: Lab note: sort CCO[C@@H]1C[C@H]2C(=O)NC3(CC=CC3)C(=O)N(C)[C@@H](C3CCCC3)C(=O)N(C)[C@H](C(=O)N3CCOCC3)CC(=O)N(C)[C@@H](COC)C(=O)N[C@@H]([C@@H](C)CC)C(=O)N(C)CC(=O)N(C)[C@H]3CCCCCN(C3=O)[C@@H](Cc3ccc(C(F)(F)F)cc3)C(=O)N(C)CC(=O)N[C@@H](CCc3cc(F)c(C(F)(F)F)c(F)c3)C(=O)N2C1 [PP0842] into the matching Kd band.
Solution: middle segment

Problem: Lab note: sort CCO[C@@H]1C[C@H]2C(=O)NC3(CCC3)C(=O)N(C)[C@@H](C3CCCC3)C(=O)N(C)[C@H](C(=O)N3CCOCC3)CC(=O)N(C)[C@@H](CC(C)C)C(=O)N[C@@H]([C@@H](C)CC)C(=O)N(C)CC(=O)N(C)[C@H]3CCCCCN(C3=O)[C@@H](Cc3ccc4ccsc4c3)C(=O)N(C)CC(=O)N[C@@H](CCc3cc(F)c(C(F)(F)F)c(F)c3)C(=O)N2C1 [PP0921] into the matching Kd band.
Solution: upper segment
